Where do these numbers come from? They come from the NIST ThermoML archive (doi:10.1016/j.fluid.2017.03.021).

Conditions: 325.15 K; 101.33 kPa; Liquid; Vibrating tube method
Numbers after ± are expanded uncertainties.
This section presents compounds with their documented mass density values.

{"columns": ["structure string", "mass density"],
 "data": [
  ["CCCC[n+]1ccn(C2CCCC2)c1.O=S(=O)([N-]S(=O)(=O)C(F)(F)F)C(F)(F)F", "1350.3 ± 10 kg/m3"],
  ["CCCCC[n+]1ccn(CCCC)c1.O=S(=O)([N-]S(=O)(=O)C(F)(F)F)C(F)(F)F", "1293.5 ± 9.1 kg/m3"],
  ["CCCCn1cc[n+](C(CC)CC)c1.O=S(=O)([N-]S(=O)(=O)C(F)(F)F)C(F)(F)F", "1295.7 ± 9.2 kg/m3"],
  ["CCCCn1cc[n+](CCC(C)C)c1.O=S(=O)([N-]S(=O)(=O)C(F)(F)F)C(F)(F)F", "1294.3 ± 9.1 kg/m3"]
]}

====

Examples of compounds with documented molar heat capacity at constant pressure follow.
Assay: molar heat capacity at constant pressure
Settings: 310.15 K; 101.33 kPa; Liquid; DSC
parameter measured: molar heat capacity at constant pressure (J/K/mol)

{"columns": ["structure string", "parameter measured", "result unit", "numeric result"],
 "data": [
  ["CCCCn1cc[n+](C(CC)CC)c1.O=S(=O)([N-]S(=O)(=O)C(F)(F)F)C(F)(F)F", "molar heat capacity at constant pressure", "J/K/mol", 705.84],
  ["CCCCC[n+]1ccn(CCCC)c1.O=S(=O)([N-]S(=O)(=O)C(F)(F)F)C(F)(F)F", "molar heat capacity at constant pressure", "J/K/mol", 695.57],
  ["CCCCn1cc[n+](CCC(C)C)c1.O=S(=O)([N-]S(=O)(=O)C(F)(F)F)C(F)(F)F", "molar heat capacity at constant pressure", "J/K/mol", 694.42],
  ["CCCC[n+]1ccn(C2CCCC2)c1.O=S(=O)([N-]S(=O)(=O)C(F)(F)F)C(F)(F)F", "molar heat capacity at constant pressure", "J/K/mol", 660.66]
]}

====

Assay: molar heat capacity at constant pressure
Details: 324.15 K; 101.33 kPa; Liquid; DSC
Numbers after ± are expanded uncertainties.
molar heat capacity at constant pressure overview
parameter measured: molar heat capacity at constant pressure

{"columns": ["structure string", "parameter measured", "result"],
 "data": [
  ["CCCCn1cc[n+](CCC(C)C)c1.O=S(=O)([N-]S(=O)(=O)C(F)(F)F)C(F)(F)F", "molar heat capacity at constant pressure", "705.36 ± 27 J/K/mol"],
  ["CCCC[n+]1ccn(C2CCCC2)c1.O=S(=O)([N-]S(=O)(=O)C(F)(F)F)C(F)(F)F", "molar heat capacity at constant pressure", "671.26 ± 26 J/K/mol"],
  ["CCCCn1cc[n+](C(CC)CC)c1.O=S(=O)([N-]S(=O)(=O)C(F)(F)F)C(F)(F)F", "molar heat capacity at constant pressure", "717.1 ± 28 J/K/mol"],
  ["CCCCC[n+]1ccn(CCCC)c1.O=S(=O)([N-]S(=O)(=O)C(F)(F)F)C(F)(F)F", "molar heat capacity at constant pressure", "706.26 ± 27 J/K/mol"]
]}

====

Assay: molar heat capacity at constant pressure
Settings: 341.15 K; 101.33 kPa; Liquid; DSC
± gives the expanded uncertainty stated by the source.

{"columns": ["structure string", "molar heat capacity at constant pressure"],
 "data": [
  ["CCCCn1cc[n+](C(CC)CC)c1.O=S(=O)([N-]S(=O)(=O)C(F)(F)F)C(F)(F)F", "729.42 ± 28 J/K/mol"],
  ["CCCCC[n+]1ccn(CCCC)c1.O=S(=O)([N-]S(=O)(=O)C(F)(F)F)C(F)(F)F", "719.43 ± 28 J/K/mol"],
  ["CCCCn1cc[n+](CCC(C)C)c1.O=S(=O)([N-]S(=O)(=O)C(F)(F)F)C(F)(F)F", "718.86 ± 28 J/K/mol"],
  ["CCCC[n+]1ccn(C2CCCC2)c1.O=S(=O)([N-]S(=O)(=O)C(F)(F)F)C(F)(F)F", "684.76 ± 27 J/K/mol"]
]}

====

Details: 287.15 K; 101.33 kPa; Liquid; Sing-around technique in a fixed-path interferometer
Numbers after ± are expanded uncertainties.
Documented speed of sound across a set of compounds
parameter measured: speed of sound

{"columns": ["structure string", "result"],
 "data": [
  ["CCCC[n+]1ccn(C2CCCC2)c1.O=S(=O)([N-]S(=O)(=O)C(F)(F)F)C(F)(F)F", "1298.1 ± 5 m/s"],
  ["CCCCn1cc[n+](CCC(C)C)c1.O=S(=O)([N-]S(=O)(=O)C(F)(F)F)C(F)(F)F", "1243.8 ± 5 m/s"],
  ["CCCCn1cc[n+](C(CC)CC)c1.O=S(=O)([N-]S(=O)(=O)C(F)(F)F)C(F)(F)F", "1238.8 ± 5 m/s"],
  ["CCCCC[n+]1ccn(CCCC)c1.O=S(=O)([N-]S(=O)(=O)C(F)(F)F)C(F)(F)F", "1239.6 ± 5 m/s"]
]}

====

Listing of recorded molar heat capacity at constant pressure by entry.
Test: molar heat capacity at constant pressure
Settings: 329.15 K; 101.33 kPa; Liquid; DSC

{"columns": ["structure string", "molar heat capacity at constant pressure (J/K/mol)"],
 "data": [
  ["CCCCn1cc[n+](CCC(C)C)c1.O=S(=O)([N-]S(=O)(=O)C(F)(F)F)C(F)(F)F", 709.59],
  ["CCCC[n+]1ccn(C2CCCC2)c1.O=S(=O)([N-]S(=O)(=O)C(F)(F)F)C(F)(F)F", 675.15],
  ["CCCCC[n+]1ccn(CCCC)c1.O=S(=O)([N-]S(=O)(=O)C(F)(F)F)C(F)(F)F", 710.35],
  ["CCCCn1cc[n+](C(CC)CC)c1.O=S(=O)([N-]S(=O)(=O)C(F)(F)F)C(F)(F)F", 721.15]
]}

====

mass density listing for selected compounds.
Settings: 317.15 K; 101.33 kPa; Liquid; Vibrating tube method
parameter measured: mass density (kg/m3)

{"columns": ["structure string", "numeric result"],
 "data": [
  ["CCCCn1cc[n+](C(CC)CC)c1.O=S(=O)([N-]S(=O)(=O)C(F)(F)F)C(F)(F)F", 1302.6],
  ["CCCCn1cc[n+](CCC(C)C)c1.O=S(=O)([N-]S(=O)(=O)C(F)(F)F)C(F)(F)F", 1301.3],
  ["CCCCC[n+]1ccn(CCCC)c1.O=S(=O)([N-]S(=O)(=O)C(F)(F)F)C(F)(F)F", 1300.5],
  ["CCCC[n+]1ccn(C2CCCC2)c1.O=S(=O)([N-]S(=O)(=O)C(F)(F)F)C(F)(F)F", 1357.5]
]}

====

Conditions: 335.15 K; 101.33 kPa; Liquid; Sing-around technique in a fixed-path interferometer
parameter measured: speed of sound (m/s)

{"columns": ["structure string", "result unit", "numeric result"],
 "data": [
  ["CCCCC[n+]1ccn(CCCC)c1.O=S(=O)([N-]S(=O)(=O)C(F)(F)F)C(F)(F)F", "m/s", 1131.5],
  ["CCCC[n+]1ccn(C2CCCC2)c1.O=S(=O)([N-]S(=O)(=O)C(F)(F)F)C(F)(F)F", "m/s", 1185],
  ["CCCCn1cc[n+](CCC(C)C)c1.O=S(=O)([N-]S(=O)(=O)C(F)(F)F)C(F)(F)F", "m/s", 1134.3],
  ["CCCCn1cc[n+](C(CC)CC)c1.O=S(=O)([N-]S(=O)(=O)C(F)(F)F)C(F)(F)F", "m/s", 1129.3]
]}

====

Details: 299.15 K; 101.33 kPa; Liquid; Sing-around technique in a fixed-path interferometer
± gives the expanded uncertainty stated by the source.
Reported speed of sound values are given for each entry in this list.
parameter measured: speed of sound

{"columns": ["structure string", "parameter measured", "result"],
 "data": [
  ["CCCCn1cc[n+](C(CC)CC)c1.O=S(=O)([N-]S(=O)(=O)C(F)(F)F)C(F)(F)F", "speed of sound", "1209.8 ± 5 m/s"],
  ["CCCCn1cc[n+](CCC(C)C)c1.O=S(=O)([N-]S(=O)(=O)C(F)(F)F)C(F)(F)F", "speed of sound", "1215.1 ± 5 m/s"],
  ["CCCCC[n+]1ccn(CCCC)c1.O=S(=O)([N-]S(=O)(=O)C(F)(F)F)C(F)(F)F", "speed of sound", "1211.3 ± 5 m/s"],
  ["CCCC[n+]1ccn(C2CCCC2)c1.O=S(=O)([N-]S(=O)(=O)C(F)(F)F)C(F)(F)F", "speed of sound", "1268.6 ± 5 m/s"]
]}
